# measurement_context: 294.65 K; 101.33 kPa; Liquid; Vibrating tube method
readout_type: mass density (kg/m3)

molecule	unit_name	numeric_value
CCC(=O)[O-].C[NH2+]CCO [2-hydroxy-N-methylethanaminium propionate]	kg/m3	1073.51
CCCC(=O)[O-].C[NH2+]CCO [N-methyl-2-hydroxyethylammonium butanoate]	kg/m3	1041.63
CC(=O)[O-].C[NH2+]CCO [N-methyl-2-hydroxyethylammonium acetate]	kg/m3	1102.88
CCCCC(=O)[O-].C[NH2+]CCO [2-hydroxy-N-methylethanaminium pentanoate]	kg/m3	1018.59
CC(C)C(=O)[O-].C[NH2+]CCO [2-hydroxy-N-methylethanaminium isobutyrate]	kg/m3	1045.59
C[NH2+]CCO.O=C[O-] [2-hydroxy-N-methylethanaminium formate]	kg/m3	1130.2
